B1: GNB5 (parent)
chain: DINSVRYYPSGDAFASGSDDATCR

- Variants of: B1
- Assay Info: protein stability index of a GFP-peptide fusion (GPS, HEK-293T) (PSI 1-6); higher = more stable;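 note: lentivirally expressed fusions sorted by FACS into six bins by GFP to DsRed ratio, PSI derived from sequencing read proportions per bin multiplied by bin number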
- Stated Conditions: c terminus: a fixed tail appended
Assay Readout: protein stability index
Form rule: numeric answer, no unit written next to it.

Per the record, DINSVRYYPSGDAFASGSDPATCR [D20P] has protein stability index of 3.4

// field: protein stability index; key: DINSVRYGPSGDAFASGSDDATCR [Y8G] ; value = 4.43

Form: variant = DENSVRYYPSGDAFASGSDDATCR [I2E] ; protein stability index = 4.87

Given item DINSVSYYPSGDAFASGSDDATCR [R6S] , the value recorded as its protein stability index is 4.41

The variant listed as DINSVRYYPPGDAFASGSDDATCR [S10P] has a reported protein stability index of 4.23

Form field protein stability index, entry DINSVRYYPSGDAFASGPDDATCR [S18P] : 3.74

For this variant ( YINSVRYYPSGDAFASGSDDATCR [D1Y] ), measured protein stability index is 2.5

According to the records, this variant DINSVRYYPSGDAFASGSDDATCL [R24L] displays protein stability index of 3.63

Entry DINSVRYYPSGDAFASGHDDATCR [S18H] , protein stability index reported as 3.82

protein stability index recorded for this variant, DINSVRYYPSGDAFASMSDDATCR [G17M] , is 3.29

Recorded protein stability index (variant HINSVRYYPSGDAFASGSDDATCR [D1H] ): 3.48

Lab book: protein stability index of DINSVDYYPSGDAFASGSDDATCR [R6D] noted as 4.58

Measured protein stability index, DINSVRRYPSGDAFASGSDDATCR [Y7R] : 4.2

Value of protein stability index reported for the variant DNNSVRYYPSGDAFASGSDDATCR [I2N] is 4.92

Entry DINSVRYYPSGDAFASGSRDATCR [D19R] — recorded protein stability index = 3.06

The recorded protein stability index for entry DINSVRYYPSGDAFASGSHDATCR [D19H] equals 3.12

Lookup result for DIASVRYYPSGDAFASGSDDATCR [N3A] ; measured protein stability index: 4.66

For this variant ( DINSVRYYPSGDAFAPGSDDATCR [S16P] ), measured protein stability index is 3.88

The variant identified as DINSVRYYPSGWAFASGSDDATCR [D12W] registered its protein stability index at 2.77

Record summary for DINSVRYYPSGDAFASGSADATCR [D19A] : reported protein stability index = 2.88

So, DINSVRYYPSYDAFASGSDDATCR [G11Y] ? Its protein stability index was 3.48

For reference, reported protein stability index for DINSVRYYPSWDAFASGSDDATCR [G11W] stands at 2.91

Please fill in: protein stability index reported for DINSVRYYPSGDPFASGSDDATCR [A13P] = 4.14

Documented protein stability index of DIGSVRYYPSGDAFASGSDDATCR [N3G] : 4.53

Lab note: measured protein stability index of DINSVRYYPSGDAFASGSDDAVCR [T22V] was 3.8

Looking up DINSVRYYPSGDAFAEGSDDATCR [S16E] , I found its protein stability index recorded as 4.55

For this variant ( DINSVNYYPSGDAFASGSDDATCR [R6N] ), measured protein stability index is 4.31

Notebook: DINSVRYYPSGDAFASGSDDATCG [R24G] , protein stability index read as 4.59

// protein stability index value for DINSVRYYPSGDAFASGSDDYTCR [A21Y] : 3.19

The value of protein stability index measured for the variant DINSVRYYPSGDAFASGSIDATCR [D19I] turned out to be 3.03

DINSVRYYPSGDAFASGSDDAFCR [T22F] yielded protein stability index of 3.42

Form: variant = DINSVRYYPSGDAFASGSLDATCR [D19L] ; protein stability index = 3.14

protein stability index for DINSVRYYPSGDAFAYGSDDATCR [S16Y] is 3.55

Entry DINFVRYYPSGDAFASGSDDATCR [S4F] , protein stability index reported as 3.48

Summary for this variant, DINWVRYYPSGDAFASGSDDATCR [S4W] : protein stability index is 3.22

// recorded protein stability index for DINSVRYYPSGDAFASGSDDATQR [C23Q] : 4.13

The variant listed as DINSVRYYPSGDAFATGSDDATCR [S16T] has a reported protein stability index of 3.49

The variant listed as DINSVRYYQSGDAFASGSDDATCR [P9Q] has a reported protein stability index of 3.8

Just so you know, measured protein stability index for DINSVRYYPTGDAFASGSDDATCR [S10T] came out at 3.68

What the record says about DINSVRYYPSGDAFKSGSDDATCR [A15K] : protein stability index is 3.58

Sure, the documented protein stability index for DINSVRYYPSGDAFTSGSDDATCR [A15T] is 3.63

Entry under test: DINSVRYYESGDAFASGSDDATCR [P9E] . Its protein stability index was 4.16

What the record says about DINSVRYYPSGDAFASGIDDATCR [S18I] : protein stability index is 3.56

Record DINSHRYYPSGDAFASGSDDATCR [V5H] . Reported protein stability index: 3.91

Noted for DINSVRYYPSGMAFASGSDDATCR [D12M] : its protein stability index reads 2.7

Lab note: EINSVRYYPSGDAFASGSDDATCR [D1E] gave protein stability index of 4.1

Provenance of the data: the supplement of paper PMC10567573
